biological target: Proteasome subunit beta (Trypanosoma cruzi); test: Trypanosoma cruzi proteasome chymotrypsin-like activity (TcProtChymo) assay.; assay type: functional; parameters: scale not given: in the data most compounds retested in dose-response had high values; details: 9.37 µM
RESULT_TYPE: Percent Effect
Answer format: value, then unit.

Below, each entry is followed by its recorded Percent Effect result.
compound=O=C(CCc1cscn1)NS(=O)(=O)c1ccc2ccccc2c1 assay_system="Proteasome subunit beta (Trypanosoma cruzi)" value=0.877%
compound=N#Cc1ccc(C(=O)N2CCC3(CC2)C(=O)Nc2ccccc23)cn1 assay_system="Proteasome subunit beta (Trypanosoma cruzi)" value=9.87%
compound="Cc1nc(CN(C)C2CCN(CC3CCCCC3)C2)no1 (stereo unspecified)" assay_system="Proteasome subunit beta (Trypanosoma cruzi)" value=8.8%
compound=CN(C)C(=O)CN1C[C@@H]2CC[C@H](C1)N(C(=O)CCn1cncn1)C2 assay_system="Proteasome subunit beta (Trypanosoma cruzi)" value=2.76%

What value of Percent Effect has been reported for the following compound? "CC(C)c1nnc2n1CCN(CCCS(=O)(=O)c1ccccc1)C2"
7.94%

Entry under review: O=c1[nH]c2c(c(=O)n1C1CCCCC1)CCC2Nc1ccccc1 (stereo unspecified) . Reported Percent Effect?
9.8%

Data credit: ChEMBL document CHEMBL3988442
